Where these numbers come from: the Kinase Knowledgebase extract (Sharma et al. 2016)

Measured IC50, listed per entry for reference.
# study-system: EGFR (UniProt P00533)
# Sequence (P00533 whole entry, looked up): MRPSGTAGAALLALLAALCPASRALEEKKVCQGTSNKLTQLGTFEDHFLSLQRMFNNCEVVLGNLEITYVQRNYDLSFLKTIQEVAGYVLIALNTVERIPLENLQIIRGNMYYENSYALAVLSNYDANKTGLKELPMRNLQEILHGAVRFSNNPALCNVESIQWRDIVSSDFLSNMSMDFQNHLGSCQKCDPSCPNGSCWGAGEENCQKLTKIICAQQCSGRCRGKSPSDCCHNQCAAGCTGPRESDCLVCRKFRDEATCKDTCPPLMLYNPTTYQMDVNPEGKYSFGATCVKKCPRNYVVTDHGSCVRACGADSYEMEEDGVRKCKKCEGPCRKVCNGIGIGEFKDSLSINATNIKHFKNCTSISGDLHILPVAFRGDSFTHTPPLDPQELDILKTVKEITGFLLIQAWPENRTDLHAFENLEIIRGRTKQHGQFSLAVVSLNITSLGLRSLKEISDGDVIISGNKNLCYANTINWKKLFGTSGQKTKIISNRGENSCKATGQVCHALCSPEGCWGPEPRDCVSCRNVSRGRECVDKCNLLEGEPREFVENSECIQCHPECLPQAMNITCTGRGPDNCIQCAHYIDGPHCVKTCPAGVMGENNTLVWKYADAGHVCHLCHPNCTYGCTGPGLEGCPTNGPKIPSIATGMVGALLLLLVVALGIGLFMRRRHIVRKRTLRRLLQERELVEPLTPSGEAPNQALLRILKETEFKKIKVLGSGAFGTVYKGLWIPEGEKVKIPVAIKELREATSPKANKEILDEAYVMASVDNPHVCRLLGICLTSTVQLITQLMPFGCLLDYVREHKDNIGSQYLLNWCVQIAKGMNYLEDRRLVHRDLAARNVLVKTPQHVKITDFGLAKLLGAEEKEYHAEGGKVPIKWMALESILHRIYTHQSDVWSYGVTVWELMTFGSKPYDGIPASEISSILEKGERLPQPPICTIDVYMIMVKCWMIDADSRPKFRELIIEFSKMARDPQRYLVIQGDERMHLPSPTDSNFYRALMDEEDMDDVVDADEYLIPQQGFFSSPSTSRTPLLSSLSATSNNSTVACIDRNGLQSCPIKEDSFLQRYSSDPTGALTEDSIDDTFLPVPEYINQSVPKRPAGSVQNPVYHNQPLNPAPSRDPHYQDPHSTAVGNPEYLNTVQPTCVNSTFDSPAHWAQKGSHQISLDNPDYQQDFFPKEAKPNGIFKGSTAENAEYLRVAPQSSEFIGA
# condition-info: various cell lines
Your answer should be a plain number; it is taken to be in nM.

A selection of reference data follows.
1. C=CC(=O)Nc1cccc2c1sc1c(Nc3cccc(Br)c3)ncnc12 : 24
2. CN(C)Cc1c[nH]c2cc3ncnc(Nc4cccc(Br)c4)c3cc12 : 9.7
3. COc1cc2nccc(Oc3cccc(Br)c3)c2cc1OC : 2500
4. CNc1cc2c(Nc3cccc(Br)c3)ncnc2cn1 : 13
5. COc1cc2ncnc(Oc3cccc(Br)c3)c2cc1OC : 70

In: Given `Brc1cccc(Nc2ncnc3cnc(NCCN4CCOCC4)cc23)c1` , state its recorded IC50.
Out: 7.9

In: Another molecule: `Brc1cccc(Nc2ncnc3cc4[nH]ccc4cc23)c1`
Out: 20

In: Consider next the molecule `Brc1cccc(Nc2ncnc3cc(NCCCN4CCOCC4)ncc23)c1` in the same way.
Out: 38

In: Can you handle `Brc1cccc(Nc2ncnc3cc4c(ccn4CCN4CCOCC4)cc23)c1` next?
Out: 16

In: Next molecule up: CCN(CC)CC(O)CNc1cc2c(Nc3cccc(Br)c3)ncnc2cn1 (configuration not stated)
Out: 28

In: What do you get for `Brc1cccc(Nc2ncnc3cnc(NCCc4c[nH]cn4)nc23)c1` ?
Out: 5.1

In: Entry `Brc1cccc(Nc2ncnc3cc4[nH]cc(CN5CCOCC5)c4cc23)c1` please
Out: 9.6

----------
# study-system: EGFR (UniProt P00533)
Measured log10 of IC50 by item
// stored as log10 of IC50 expressed in nM

For orientation, consider the following solved cases.
1) Cc1cccc2c(CCC(=O)O)c(SSc3[nH]c4c(C)cccc4c3CCC(=O)O)[nH]c12 : 3.18
2) CNc1cc2ncnc(Nc3cccc(Br)c3)c2cn1 : -1.04
3) COc1cc2ncnc(N[C@@H](C)c3cccc(Br)c3)c2cc1OC : 3.58
4) Clc1cccc(Nc2ncnc3[nH]c4ccccc4c23)c1 : 0.78
5) CNC(=O)c1c([Se][Se]c2c(C(=O)NC)c3ccccc3n2C)n(C)c2ccccc12 : 3.79

In: What log10 of IC50 appears in the records for this compound with EGFR (UniProt P00533)? COc1cc2ncnc(NC3CC3c3ccccc3)c2cc1OC (stereo unspecified)
Out: 1.00

In: Request: `Clc1cccc(Nc2ncnc3[nH]nc(Nc4cccc(Cl)c4)c23)c1`
Out: 1.52

In: Can you handle `Cn1c(SSc2c(C(=O)Nc3ccccc3)c3ccccc3n2C)c(C(=O)Nc2ccccc2)c2ccccc21` next?
Out: 4.30

In: `Brc1cccc(Nc2ncnc3cc4[nH]ncc4cc23)c1` ?
Out: -0.36

In: Now consider `COc1cc2ncnc(Nc3cncc4ccccc34)c2cc1OC` and answer again.
Out: 0.78

In: Another compound: `C=CC(=O)Nc1ccc2c(c1)sc1c(Nc3cccc(Br)c3)ncnc12`
Out: 1.32

----------
Read-out record for EGFR (UniProt P00533): IC50
Respond numerically; units are nM and should not be typed.

1) C=CC(=O)Nc1cccc2c1sc1c(Nc3cccc(Br)c3)ncnc12 : 1.4
2) CC(=O)Oc1cccc2c1c(C(=O)Nc1ccccc1)c(SSc1c(C(=O)Nc3ccccc3)c3c(OC(C)=O)cccc3n1C)n2C : 10000
3) COc1cc2ncnc(N[C@H](C)c3cccc(Br)c3)c2cc1OC : 1.6
4) Brc1cccc(Nc2ncnc3cc4cn[nH]c4cc23)c1 : 0.34

In: // lookup IC50 for `Brc1cccc(Nc2ncnc3cc4[nH]ccc4cc23)c1`
Out: 0.44
